# tested system: CYP2C19 (Homo sapiens, UniProt P33261)
# Sequence (P33261 whole entry): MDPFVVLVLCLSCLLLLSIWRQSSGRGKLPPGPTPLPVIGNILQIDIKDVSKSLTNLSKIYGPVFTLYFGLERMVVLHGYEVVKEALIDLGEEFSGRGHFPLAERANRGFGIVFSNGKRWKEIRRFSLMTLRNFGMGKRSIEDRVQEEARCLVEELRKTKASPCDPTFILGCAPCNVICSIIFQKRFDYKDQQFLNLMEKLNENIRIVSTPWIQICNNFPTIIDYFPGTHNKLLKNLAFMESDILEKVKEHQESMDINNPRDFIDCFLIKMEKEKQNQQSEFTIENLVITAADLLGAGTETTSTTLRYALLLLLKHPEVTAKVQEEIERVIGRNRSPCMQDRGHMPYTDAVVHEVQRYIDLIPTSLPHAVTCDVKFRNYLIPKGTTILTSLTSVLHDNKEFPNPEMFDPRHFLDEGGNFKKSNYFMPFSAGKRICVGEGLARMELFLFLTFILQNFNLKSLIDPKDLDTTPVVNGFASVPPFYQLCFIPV
# procedure summary: Inhibition of CYP2C19 (unknown origin) using omeprazole substrate at 10 uM
# Assay type: ADME
# run parameters: probe omeprazole
Classification field: t = inhibition at 10 µM at or over 70%; f = inhibition at 10 µM under 70%.

Before answering, review these 5 worked examples.
> print(dat)
                                   compound                           tested.system  label.value
1  O=S(=O)(Nc1nncs1)c1cc(F)c(OC[C@@H]2CNCC[C@H]2c2ccc(Cl)cc2)cc1F (relative stereo)  CYP2C19 (Homo sapiens, UniProt P33261)            f
2  O=S(=O)(Nc1cccnn1)c1cc(F)c(OC[C@@H]2CNCC[C@H]2c2ccc(Cl)cc2)cc1F (relative stereo)  CYP2C19 (Homo sapiens, UniProt P33261)            f
3  O=S(=O)(Nc1ncns1)c1cc(F)c(OC[C@@H]2CN(CC(F)F)CC[C@H]2c2ccc(Cl)cc2)cc1F (relative stereo)  CYP2C19 (Homo sapiens, UniProt P33261)            t
4  Cc1cnc(NS(=O)(=O)c2cc(F)c(OC[C@@H]3CNCC[C@H]3c3ccc(Cl)cc3)cc2F)s1 (relative stereo)  CYP2C19 (Homo sapiens, UniProt P33261)            f
5  O=S(=O)(Nc1ncns1)c1cc(F)c(OC[C@@H]2CNCC[C@H]2c2ccccc2)cc1F (relative stereo)  CYP2C19 (Homo sapiens, UniProt P33261)            t

-- ask Confirm if inhibition at 10 µM reported for the compound Cc1cc(NS(=O)(=O)c2cc(F)c(OC[C@@H]3CNCC[C@H]3c3ccc(Cl)cc3)cc2F)no1 (relative stereo) is 70% or above.
-- reply f

-- ask Test whether the compound O=S(=O)(Nc1ncns1)c1cc(F)c(OC[C@H]2CNCC[C@@H]2c2ccc(F)c(F)c2)cc1F (relative stereo) records inhibition at 10 µM of 70% or higher.
-- reply t

-- ask # check: inhibition at 10 µM of O=S(=O)(Nc1ccc(F)cn1)c1cc(F)c(OC[C@@H]2CNCC[C@H]2c2ccc(Cl)cc2)cc1F (relative stereo) is greater than or equal to 70%
-- reply f

-- ask In plain terms: is recorded inhibition at 10 µM at least 70% for O=S(=O)(Nc1ncns1)c1cc(F)c(OC[C@@H]2CNCC[C@H]2c2ccc(Cl)cc2)cc1F (racemic) ?
-- reply t

-- ask # bool: inhibition at 10 µM of "O=S(=O)(Nc1ncns1)c1cc(F)c(OC[C@@H]2CN(CCF)CC[C@H]2c2ccc(Cl)cc2)cc1F" >= 70%
-- reply t

-- ask Hello, I need to know if O=S(=O)(Nc1ncns1)c1cc(F)c(OC[C@@H]2CN(CC(F)(F)F)CC[C@H]2c2ccc(Cl)cc2)cc1F (relative stereo) has measured inhibition at 10 µM not below 70%. Thanks!
-- reply t

-- ask Can O=S(=O)(Nc1ncccn1)c1cc(F)c(OC[C@@H]2CNCC[C@H]2c2ccc(Cl)cc2)cc1F (relative stereo) be said to have inhibition at 10 µM at or above 70%?
-- reply f
